# target-or-test-system: T1, TGFβ3 (R&D Systems) (Homo sapiens (Human), UniProt P10600 301-412, Active TGFβ3 is a disulfide-linked homodimer of this chain; one copy is given.)
# T1 sequence: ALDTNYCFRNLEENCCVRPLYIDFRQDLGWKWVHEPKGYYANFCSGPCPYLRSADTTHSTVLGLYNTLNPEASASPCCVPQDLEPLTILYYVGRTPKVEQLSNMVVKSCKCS
# assay-procedure: cell-based or functional assay
Parameter: pSmad-3, IC50. Scope: all listed entries.

binder: affinity matured HcLb 263 (antibody, V domains shown, full IgG; constant regions not restated) VH: EVQLVQSGAEVKKPGASVKVSCKTSGYIFITYWMNWVRQAPGAGLDWMGQIFPAWGSTNYNEMFEGRVTLTADTSTSTAYMELSSLRAGDIAVYYCARGYGNYALDAMDYWGQGTLVTVSS VL: DIVMTQTPPSLSVSPRETASISCRASESVDSYGNSFMHWYLQKPGQSPQLLIYLASNLESGVSDRFSGSGSGTDFTLRISRVEANDTGVYYCQQNNEDPLTFGQ
pSmad-3, IC50, nM: 1.03

binder: affinity matured HcLb 188 (antibody, V domains shown, full IgG; constant regions not restated) VH: EVQLVQSGAEVKKPGASVKVSCKTSGYTFITYWMNWVRQAPGAGLDWMGQIFPAWGSTNYNEMFEGRVTLTADTSTSTAYMELSSLRAGDIAVYYCARGYGNYALDAMDYWGQGTLVTVSS VL: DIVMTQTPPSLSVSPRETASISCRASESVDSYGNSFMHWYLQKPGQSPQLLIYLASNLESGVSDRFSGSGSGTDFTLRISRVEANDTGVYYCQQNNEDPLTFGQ
pSmad-3, IC50, nM: 1.46
